Target: UniProt Q9JN24
Sequence (whole entry): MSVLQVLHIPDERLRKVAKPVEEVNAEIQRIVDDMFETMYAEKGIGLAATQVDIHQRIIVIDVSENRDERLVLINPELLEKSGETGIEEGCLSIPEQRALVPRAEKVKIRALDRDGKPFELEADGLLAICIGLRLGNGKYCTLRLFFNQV
Assay: Inhibition of Escherichia coli peptide deformylase at 100 uM after 1 hr by fluorescence polarization based competition assay
metric: inhibition (%)

Recorded inhibition, per entry:
{"columns": ["chemicalStructure", "inhibition [%]"],
 "data": [
  ["COc1ccc(C(=O)c2coc3c2C(=O)C(=O)C=C3Cl)cc1", 13],
  ["COc1cc(C(=O)c2coc3c(Cl)c(Cl)c(O)cc23)cc(OC)c1OC", 2],
  ["COc1ccc(C(=O)c2coc3c(Br)cc(O)cc23)cc1", 9],
  ["COc1ccc(C(=O)c2coc3c2C(=O)C(=O)C(Br)=C3Br)cc1OC", 53]
]}

(a) COc1ccc(C(=O)c2coc3ccc(O)cc23)cc1
(b) COc1ccc(C(=O)c2coc3c2C(=O)C(=O)c2ccccc2-3)cc1
Response body: label of entry with the larger inhibition; valid values a , b . Your answer should be the label of the entry you select.
b

Data credit: ChEMBL document CHEMBL1806384
